molecular target: PpCHIL-A L188W (Physcomitrium patens, UniProt A9T3E4, L188W); test: Quercetin fluorescence enhancement assay, PpCHIL-A L188W; type: binding, Physcomitrella patens; details: fluorescence enhancement of quercetin
Sequence (A9T3E4 entry or part of it L188W): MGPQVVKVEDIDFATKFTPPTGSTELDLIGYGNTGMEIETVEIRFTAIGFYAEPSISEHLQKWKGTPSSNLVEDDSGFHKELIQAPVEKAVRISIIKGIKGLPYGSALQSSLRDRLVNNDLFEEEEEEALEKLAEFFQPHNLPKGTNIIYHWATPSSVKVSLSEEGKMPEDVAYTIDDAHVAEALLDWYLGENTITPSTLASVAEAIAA
pKd: −log10 of the molar value.
readout.name: pKd

1. O=c1c(O)c(-c2ccc(O)c(O)c2)oc2cc(O)cc(O)c12 [quercetin]; 3.24

---

biological target: VvCHIL Q141A (Vitis vinifera, UniProt F6HC36, Q141A); experiment: DSF thermal shift, VvCHIL Q141A variant; type: binding
Sequence (F6HC36 entry or part of it Q141A): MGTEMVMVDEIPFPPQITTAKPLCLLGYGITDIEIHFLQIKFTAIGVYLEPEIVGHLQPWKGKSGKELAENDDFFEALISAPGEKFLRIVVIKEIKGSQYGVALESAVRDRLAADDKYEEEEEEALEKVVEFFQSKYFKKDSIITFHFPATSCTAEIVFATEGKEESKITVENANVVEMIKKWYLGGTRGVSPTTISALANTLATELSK
readout.name: Kd (µM)

1) O=C(/C=C/c1ccc(O)cc1)c1c(O)cc(O)cc1O [NC, 2ʹ,4,4ʹ,6ʹ-tetrahydroxychalcone]; 16
